Values compiled from patent US20100130581A1.

Collected half-life at 0.7 mg/mL values appear next to each entry.
Assay: Plasma stability assay
Type: in vitro ADME
Conditions: male, human, plasma at 37° C.
Where a SMILES comes first, the peptide text is derived from it. [ ]: non-standard residue; d: D form. ξ: configuration not given here. Dmt = Cc1cc(O)cc(C)c1C[C@H](N)C(=O)O; ξGly(decyl) = CCCCCCCCCCC(N)C(=O)O; ξGly(octyl) = CCCCCCCCC(N)C(=O)O
Note: unit min is implicit; provide only the numeric part.

The cases that follow already have their half-life at 0.7 mg/mL on record.
| COMPOUND | half-life at 0.7 mg/mL (min) |
| --- | --- |
| CCCCCCCCC(N)C(=O)N[C@@H](Cc1c(C)cc(O)cc1C)C(=O)N1CCC[C@H]1C(=O)N[C@@H](Cc1c[nH]c2ccccc12)C(=O)N[C@@H](Cc1ccccc1)C(N)=O (stereo partly shown) [Compound 8] (H-[ξGly(octyl)][Dmt]PWF-NH2) | 41.4 |
| CCCCCCC(N)C(=O)N[C@@H](Cc1c(C)cc(O)cc1C)C(=O)N1CCC[C@H]1C(=O)N[C@@H](Cc1c[nH]c2ccccc12)C(=O)N[C@@H](Cc1ccccc1)C(N)=O (single isomer, unassigned) [Compound 7] | 4.55 |
| CCCCCCCCCCC(N)C(=O)N[C@@H](Cc1c(C)cc(O)cc1C)C(=O)N1CCC[C@H]1C(=O)N[C@@H](Cc1c[nH]c2ccccc12)C(=O)N[C@@H](Cc1ccccc1)C(N)=O (stereo partly shown) [Compound 9] (H-[ξGly(decyl)][Dmt]PWF-NH2) | 20.3 |

Pending compound:
Specify half-life at 0.7 mg/mL for Cc1cc(O)cc(C)c1C[C@H](N)C(=O)N1CCC[C@H]1C(=O)N[C@@H](Cc1c[nH]c2ccccc12)C(=O)N[C@@H](Cc1ccccc1)C(N)=O [(Dmt^1)Endo, reference compound] and stop.
4.18

###

Test: Blood plasma concentration after oral gavage
Format: in vivo, rat
Details: Sprague-Dawley, rat, plasma, 10 µmol/rat, male rats, read-out: time of highest recorded concentration in blood (converted)
READOUT KIND: Tmax (h)
Note: unit h is implicit; provide only the numeric part.

Specify Tmax for `NC(=O)[C@H](Cc1ccccc1)NC(=O)[C@H](Cc1c[nH]c2ccccc12)NC(=O)[C@@H]1CCCN1C(=O)[C@H](Cc1ccc(O)cc1)NC(=O)CCC(=O)N[C@@H]1O[C@H](CO)[C@@H](O[C@@H]2O[C@H](CO)[C@H](O)[C@H](O)[C@H]2O)[C@H](O)[C@H]1O` and stop.
1

###

Target: μ-opioid receptor (Homo sapiens)
Construct: SH-SY5Y cells endogenously expressing μ- and δ-opioid receptors; endogenous in cells
Sequence (P35372 whole entry): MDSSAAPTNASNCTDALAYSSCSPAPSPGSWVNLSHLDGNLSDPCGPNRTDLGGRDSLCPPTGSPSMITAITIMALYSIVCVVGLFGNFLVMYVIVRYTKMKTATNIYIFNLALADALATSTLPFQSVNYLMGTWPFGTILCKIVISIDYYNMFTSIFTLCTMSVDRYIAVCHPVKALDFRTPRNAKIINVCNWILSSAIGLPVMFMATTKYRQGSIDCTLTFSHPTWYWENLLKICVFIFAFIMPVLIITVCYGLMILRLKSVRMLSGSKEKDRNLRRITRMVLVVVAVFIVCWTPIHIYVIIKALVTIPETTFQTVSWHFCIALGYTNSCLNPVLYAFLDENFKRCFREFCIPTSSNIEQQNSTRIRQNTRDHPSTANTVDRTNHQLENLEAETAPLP
Assay: Whole cell-based binding assay, displacement of 3H-DAMGO
Where a SMILES comes first, the peptide text is derived from it. [ ]: non-standard residue; d: D form. ξ: configuration not given here. Dmt = Cc1cc(O)cc(C)c1C[C@H](N)C(=O)O; ξGly(decyl) = CCCCCCCCCCC(N)C(=O)O; ξGly(octyl) = CCCCCCCCC(N)C(=O)O
Collected Ki values appear next to each entry.
Note: unit nM is implicit; provide only the numeric part.

The cases that follow already have their Ki on record.
| COMPOUND | SYSTEM NAME | Ki / nM |
| --- | --- | --- |
| Cc1cc(O)cc(C)c1C[C@H](N)C(=O)N1CCC[C@H]1C(=O)N[C@@H](Cc1c[nH]c2ccccc12)C(=O)N[C@@H](Cc1ccccc1)C(N)=O [(Dmt^1)Endo, reference compound] | μ-opioid receptor (Homo sapiens) | 0.058 |
| CCCCCCC(N)C(=O)N[C@@H](Cc1c(C)cc(O)cc1C)C(=O)N1CCC[C@H]1C(=O)N[C@@H](Cc1c[nH]c2ccccc12)C(=O)N[C@@H](Cc1ccccc1)C(N)=O (single isomer, unassigned) [Compound 7] | μ-opioid receptor (Homo sapiens) | 0.071 |
| CCCCCCCCCCC(N)C(=O)N[C@@H](Cc1ccc(O)cc1)C(=O)N1CCC[C@H]1C(=O)N[C@@H](Cc1c[nH]c2ccccc12)C(=O)N[C@@H](Cc1ccccc1)C(N)=O (stereo partly shown) [Compound 2] (H-[ξGly(decyl)]YPWF-NH2) | μ-opioid receptor (Homo sapiens) | 35.5 |

Pending compound:
Jot down Ki (μ-opioid receptor (Homo sapiens)) of CCCCCCCCC(N)C(=O)N[C@@H](Cc1c(C)cc(O)cc1C)C(=O)N1CCC[C@H]1C(=O)N[C@@H](Cc1c[nH]c2ccccc12)C(=O)N[C@@H](Cc1ccccc1)C(N)=O (stereo partly shown) [Compound 8] (H-[ξGly(octyl)][Dmt]PWF-NH2) .
0.47
